Tested on: SK-LU-1
Test: relative viability (nuclei count vs DMSO), 5 days (fraction); higher = more cells survive
Details: first compound 0.8 µM
Let's look at some molecules and their measured relative viability.
measurement-label: relative viability

• O=c1cc(-c2cccc3c2Sc2ccccc2S3)oc(N2CCOCC2)c1 + O=C(c1cc(Cc2n[nH]c(=O)c3ccccc23)ccc1F)N1CCN(C(=O)C2CC2)CC1 [Olaparib] (partner 8 µM) = 0.524
• O=c1cc(-c2cccc3c2Sc2ccccc2S3)oc(N2CCOCC2)c1 + O=C(CCCCCCC(=O)Nc1ccccc1)NO [Vorinostat] (partner 1 µM) = 0.877
• O=c1cc(-c2cccc3c2Sc2ccccc2S3)oc(N2CCOCC2)c1 + CC(C)C[C@H](NC(=O)[C@H](Cc1ccccc1)NC(=O)c1cnccn1)B(O)O [Bortezomib] (partner 0.002 µM) = 1.16

###

Tested on: ABC-1
Assay: relative viability (nuclei count vs DMSO), 5 days (fraction); higher = more cells survive
Details: first compound 0.253 µM
measurement-label: relative viability

- COc1nc(C)cnc1NS(=O)(=O)c1cccnc1-c1ccc(-c2nnco2)cc1 [Zibotentan] + COc1cccc2cc(-c3nc([C@H]4CC[C@H](C(=O)O)CC4)n4ncnc(N)c34)[nH]c12 [OSI-027] (partner 0.5 µM): 0.542
- COc1nc(C)cnc1NS(=O)(=O)c1cccnc1-c1ccc(-c2nnco2)cc1 [Zibotentan] + Nc1ncn([C@H]2C[C@H](O)[C@@H](CO)O2)c(=O)n1 [Decitabine] (partner 2 µM): 1.12
- O=c1cc(-c2cccc3c2Sc2ccccc2S3)oc(N2CCOCC2)c1 + C[C@]1(O)C[C@@H](c2nc(-c3ccc4ccc(-c5ccccc5)nc4c3)c3c(N)nccn32)C1 [Linsitinib] (partner 1 µM): 1.02
- O=c1cc(-c2cccc3c2Sc2ccccc2S3)oc(N2CCOCC2)c1 + COc1cc2c(Oc3ccc(NC(=O)C4(C(=O)Nc5ccc(F)cc5)CC4)cc3F)ccnc2cc1OCCCN1CCOCC1 [Foretinib] (partner 0.25 µM): 1.17
- COc1nc(C)cnc1NS(=O)(=O)c1cccnc1-c1ccc(-c2nnco2)cc1 [Zibotentan] + CS(=O)(=O)N1CCN(Cc2cc3nc(-c4cccc5[nH]ncc45)nc(N4CCOCC4)c3s2)CC1 [Pictilisib] (partner 1 µM): 0.623
- O=c1cc(-c2cccc3c2Sc2ccccc2S3)oc(N2CCOCC2)c1 + COc1cccc2cc(-c3nc([C@H]4CC[C@H](C(=O)O)CC4)n4ncnc(N)c34)[nH]c12 [OSI-027] (partner 0.5 µM): 0.478
- O=c1cc(-c2cccc3c2Sc2ccccc2S3)oc(N2CCOCC2)c1 + Cc1cc(Nc2cc(N3CCN(C)CC3)nc(Sc3ccc(NC(=O)C4CC4)cc3)n2)n[nH]1 [Tozasertib] (partner 0.1 µM): 0.203
- COc1nc(C)cnc1NS(=O)(=O)c1cccnc1-c1ccc(-c2nnco2)cc1 [Zibotentan] + CS(=O)(=O)CCNCc1ccc(-c2ccc3ncnc(Nc4ccc(OCc5cccc(F)c5)c(Cl)c4)c3c2)o1 [Lapatinib] (partner 2 µM): 0.885
- COc1nc(C)cnc1NS(=O)(=O)c1cccnc1-c1ccc(-c2nnco2)cc1 [Zibotentan] + Cc1nc(Nc2ncc(C(=O)Nc3c(C)cccc3Cl)s2)cc(N2CCN(CCO)CC2)n1 [Dasatinib] (partner 0.075 µM): 0.572

###

Test system: NCI-H3122
Assay: relative viability (nuclei count vs DMSO), 5 days (fraction); higher = more cells survive
Settings: first compound 0.3162 µM
measurement-label: relative viability

* O=c1cc(N2CCOCC2)oc2c(-c3cccc4c3sc3ccccc34)cccc12 + C[C@@H](Oc1cc(-c2cnn(C3CCNCC3)c2)cnc1N)c1c(Cl)ccc(F)c1Cl [Crizotinib] (partner 1 µM) | 0.297
* CCN(CC)CCCCNc1ncc2cc(-c3cc(OC)cc(OC)c3)c(NC(=O)NC(C)(C)C)nc2n1 + O=C(CCCCCCC(=O)Nc1ccccc1)NO [Vorinostat] (partner 1 µM) | 0.996
* CCN(CC)CCCCNc1ncc2cc(-c3cc(OC)cc(OC)c3)c(NC(=O)NC(C)(C)C)nc2n1 + Cc1nc(Nc2ncc(C(=O)Nc3c(C)cccc3Cl)s2)cc(N2CCN(CCO)CC2)n1 [Dasatinib] (partner 0.075 µM) | 0.954

###

System: NCI-H650
Assay: relative viability (nuclei count vs DMSO), 5 days (fraction); higher = more cells survive
Conditions: first compound 0.253 µM
Please assign Not fulfilled whenever relative viability is at or above 0.7, and Fulfilled whenever it is below.

- O=c1cc(-c2cccc3c2Sc2ccccc2S3)oc(N2CCOCC2)c1 + CC(=O)c1c(C)c2cnc(Nc3ccc(N4CCNCC4)cn3)nc2n(C2CCCC2)c1=O [Palbociclib] (partner 0.5 µM): Fulfilled
- COc1nc(C)cnc1NS(=O)(=O)c1cccnc1-c1ccc(-c2nnco2)cc1 [Zibotentan] + CC(C)C[C@H](NC(=O)[C@H](Cc1ccccc1)NC(=O)c1cnccn1)B(O)O [Bortezomib] (partner 0.002 µM): Not fulfilled
- O=c1cc(-c2cccc3c2Sc2ccccc2S3)oc(N2CCOCC2)c1 + CC(=O)Nc1cccc(-n2c(=O)n(C3CC3)c(=O)c3c(Nc4ccc(I)cc4F)n(C)c(=O)c(C)c32)c1 [Trametinib] (partner 0.02 µM): Not fulfilled
- COc1nc(C)cnc1NS(=O)(=O)c1cccnc1-c1ccc(-c2nnco2)cc1 [Zibotentan] + CCNC(=O)c1noc(-c2cc(C(C)C)c(O)cc2O)c1-c1ccc(CN2CCOCC2)cc1 [Luminespib] (partner 0.01 µM): Fulfilled
- O=c1cc(-c2cccc3c2Sc2ccccc2S3)oc(N2CCOCC2)c1 + Cc1nc(Nc2ncc(C(=O)Nc3c(C)cccc3Cl)s2)cc(N2CCN(CCO)CC2)n1 [Dasatinib] (partner 0.075 µM): Fulfilled

###

Let's look at some molecules and their measured relative viability.
Tested on: LC-2-ad
Experiment: relative viability (nuclei count vs DMSO), 5 days (fraction); higher = more cells survive
Settings: first compound 0.01 µM
measurement-label: relative viability

• CCN(CC)CCCCNc1ncc2cc(-c3cc(OC)cc(OC)c3)c(NC(=O)NC(C)(C)C)nc2n1 + CC(=O)c1c(C)c2cnc(Nc3ccc(N4CCNCC4)cn3)nc2n(C2CCCC2)c1=O [Palbociclib] (partner 0.5 µM) = 0.503
• O=c1cc(N2CCOCC2)oc2c(-c3cccc4c3sc3ccccc34)cccc12 + O=C(CCCCCCC(=O)Nc1ccccc1)NO [Vorinostat] (partner 1 µM) = 0.703
• CCN(CC)CCCCNc1ncc2cc(-c3cc(OC)cc(OC)c3)c(NC(=O)NC(C)(C)C)nc2n1 + COc1cccc2cc(-c3nc([C@H]4CC[C@H](C(=O)O)CC4)n4ncnc(N)c34)[nH]c12 [OSI-027] (partner 0.5 µM) = 0.776
• CCN(CC)CCCCNc1ncc2cc(-c3cc(OC)cc(OC)c3)c(NC(=O)NC(C)(C)C)nc2n1 + C[C@]1(O)C[C@@H](c2nc(-c3ccc4ccc(-c5ccccc5)nc4c3)c3c(N)nccn32)C1 [Linsitinib] (partner 1 µM) = 0.803
• CCN(CC)CCCCNc1ncc2cc(-c3cc(OC)cc(OC)c3)c(NC(=O)NC(C)(C)C)nc2n1 + Cc1nc(Nc2ncc(C(=O)Nc3c(C)cccc3Cl)s2)cc(N2CCN(CCO)CC2)n1 [Dasatinib] (partner 0.075 µM) = 0.575

###

Test system: NCI-H3122
Assay: relative viability (nuclei count vs DMSO), 5 days (fraction); higher = more cells survive
Conditions: first compound 0.08 µM
Please assign Not fulfilled whenever relative viability is at or above 1, and Fulfilled whenever it is below.

- O=c1cc(-c2cccc3c2Sc2ccccc2S3)oc(N2CCOCC2)c1 + COc1cccc2cc(-c3nc([C@H]4CC[C@H](C(=O)O)CC4)n4ncnc(N)c34)[nH]c12 [OSI-027] (partner 0.5 µM): Not fulfilled
- COc1nc(C)cnc1NS(=O)(=O)c1cccnc1-c1ccc(-c2nnco2)cc1 [Zibotentan] + Nc1nc2[nH]cc(CCc3ccc(C(=O)N[C@@H](CCC(=O)O)C(=O)O)cc3)c2c(=O)[nH]1 [Pemetrexed] (partner 0.2 µM): Fulfilled
- O=c1cc(-c2cccc3c2Sc2ccccc2S3)oc(N2CCOCC2)c1 + COc1cc2c(Oc3ccc(NC(=O)C4(C(=O)Nc5ccc(F)cc5)CC4)cc3F)ccnc2cc1OCCCN1CCOCC1 [Foretinib] (partner 0.25 µM): Fulfilled
- COc1nc(C)cnc1NS(=O)(=O)c1cccnc1-c1ccc(-c2nnco2)cc1 [Zibotentan] + Cc1cc(Nc2cc(N3CCN(C)CC3)nc(Sc3ccc(NC(=O)C4CC4)cc3)n2)n[nH]1 [Tozasertib] (partner 0.1 µM): Fulfilled

###

Tested on: LCLC-97TM1
Experiment: relative viability (nuclei count vs DMSO), 5 days (fraction); higher = more cells survive
Conditions: first compound 0.01 µM
measurement-label: relative viability

* O=c1cc(N2CCOCC2)oc2c(-c3cccc4c3sc3ccccc34)cccc12 + COc1cc2c(Oc3ccc(NC(=O)C4(C(=O)Nc5ccc(F)cc5)CC4)cc3F)ccnc2cc1OCCCN1CCOCC1 [Foretinib] (partner 0.25 µM) | 0.905
* CCN(CC)CCCCNc1ncc2cc(-c3cc(OC)cc(OC)c3)c(NC(=O)NC(C)(C)C)nc2n1 + O=C(CCCCCCC(=O)Nc1ccccc1)NO [Vorinostat] (partner 1 µM) | 0.805
* CCN(CC)CCCCNc1ncc2cc(-c3cc(OC)cc(OC)c3)c(NC(=O)NC(C)(C)C)nc2n1 + CCNC(=O)c1noc(-c2cc(C(C)C)c(O)cc2O)c1-c1ccc(CN2CCOCC2)cc1 [Luminespib] (partner 0.01 µM) | 0.743

src = the supplement of paper PMC10307832
